# MEASUREMENT_TARGET: T1, CD28 (detection antigen of the BLI assay) (human, UniProt P10747 19-152, limits assumed)
# T1 construct: also called the antigen
# ASSAY_METHOD_TEXT: BLI (GATOR); antibody loaded at 30 nM, antigen 300-37.5 nM
ATTRIBUTE_MEASURED: koff (s⁻¹)
Please respond with the number in s⁻¹ and leave the unit unwritten.

Task: Tell me measured koff for huVH5huVL2 (antibody, human IgG1, kappa, V domains shown) VH: QVQLQESGPGLVKPSETLSLTCTVSGFSISDYGVHWIRQPPGKGLEWIGVIWAGGGTNYNPSLKSRVTISVDTSKNQVSLKLSSVTAADTAVYYCARDKGYSYYYSMDYWGQGTTVTVSS VL: DIQLTQSPSSLSASVGDRVTITCRASESVEYYVTSLMQWYQQKPGKAPKLLIFAASNVESGVPSRFSGSGSGTNFTLTISSVQPEDFATYFCQQSRKVPYTFGGGTKLEIKR please.
Result: 0.000909

Task: Tell me measured koff for huVH3huVL3 (antibody, human IgG1, kappa, V domains shown) VH: QVQLQESGPGLVKPSETLSLTCTVSGFSLSDYGVHWVRQSPGKGLEWIGVIWAGGGTNYNSALKSRKTISKDNSKSQVSLKLSSVTAADTAVYYCARDKGYSYYYSMDYWGQGTTVTVSS VL: DIQLTQSPSSLSASVGDRVTITCRASESVEYYVTSLMQWYQQKPGKAPKLLIFAASNVESGVPSRFSGSGSGTDFTLTISSLQPEDFATYYCQQSRKVPYTFGGGTKLEIKR please.
Result: 0.000818

Task: Tell me measured koff for huVH5huVL3 (antibody, human IgG1, kappa, V domains shown) VH: QVQLQESGPGLVKPSETLSLTCTVSGFSISDYGVHWIRQPPGKGLEWIGVIWAGGGTNYNPSLKSRVTISVDTSKNQVSLKLSSVTAADTAVYYCARDKGYSYYYSMDYWGQGTTVTVSS VL: DIQLTQSPSSLSASVGDRVTITCRASESVEYYVTSLMQWYQQKPGKAPKLLIFAASNVESGVPSRFSGSGSGTDFTLTISSLQPEDFATYYCQQSRKVPYTFGGGTKLEIKR please.
Result: 0.00101
